Assay: Antioxidant activity assessed as GO radical scavenging activity measured for 30 mins in absence of light
Format: functional
pIC50: −log10 of the molar value.
The reader will find reported pIC50 values listed item by item below.
Metric: pIC50

>>> df
                               query_smiles  value_measured
0  CS(=O)(=O)[O-].O=C(/C=C/c1ccc(O)c(O)c1)NCCCCCC[P+](c1ccccc1)(c1ccccc1)c1ccccc1            5.39
1  CS(=O)(=O)[O-].O=C(/C=C/c1ccc(O)c(O)c1)NCCCCCCCC[P+](c1ccccc1)(c1ccccc1)c1ccccc1            5.55
2  CS(=O)(=O)[O-].O=C(/C=C/c1cc(O)c(O)c(O)c1)NCCCCCCCC[P+](c1ccccc1)(c1ccccc1)c1ccccc1            5.64
3  CS(=O)(=O)[O-].O=C(/C=C/c1ccc(O)c(O)c1)NCCCCCCCCCC[P+](c1ccccc1)(c1ccccc1)c1ccccc1            5.57
4  CS(=O)(=O)[O-].O=C(/C=C/c1cc(O)c(O)c(O)c1)NCCCCCC[P+](c1ccccc1)(c1ccccc1)c1ccccc1            5.51
5  CS(=O)(=O)[O-].O=C(/C=C/c1ccc(O)c(O)c1)NCC[P+](c1ccccc1)(c1ccccc1)c1ccccc1            5.35
6                 O=C(O)/C=C/c1ccc(O)c(O)c1            5.47
7  CS(=O)(=O)[O-].O=C(/C=C/c1cc(O)c(O)c(O)c1)NCCCCCCCCCC[P+](c1ccccc1)(c1ccccc1)c1ccccc1            5.60
